test system: Respiratory Syncytial Virus (RSV) long strain; test: microbe, parasite or virus in culture; type: cell-based; conditions: human respiratory syncytial virus, HEp-2, 120 h, read-out: 50% effective concentration (EC50), HEp-2 cells infected with RSV long strain, 5 days, CCK-8 readout; Tables A and B list compounds by EC50 band
pEC50: −log10 of the molar value.
Please respond with reported pEC50 for every item in the list.

[in] Quote pEC50 reported for COc1cc(C(=O)NCC(O)(CO)c2ccc(OC)c(-c3ccc(F)c(Cl)c3)n2)ccc1OC1CC1(F)F (stereo not shown) [Compound 469] please.
[out] > 6.00

[in] Identify pEC50 associated with the molecule COc1cc(C(=O)NCC(O)(c2cc3c(c(-c4ccc(F)c(Cl)c4)n2)OCC3(C)C)C(F)(F)F)cc2ccc(C#N)nc12 (stereo not shown) [Compound 215]
[out] 4.30 to 6.00

[in] Complete the entry with pEC50 for COc1cc(C(=O)NCC(O)(c2cc(C(C)(C)N)cc(-c3ccc(F)cc3)n2)C(F)(F)F)ccc1OC1CC(O)C1 (stereo not shown) [Compound 596]
[out] > 6.00

[in] Check the records and state pEC50 for COc1cc(C(=O)NC[C@](O)(c2cc(C(C)(C)N)cc(-c3ccc(F)c(Cl)c3)n2)C(F)(F)F)ccc1OCC(N)=O [Compound 548]
[out] > 6.00

[in] Return reported pEC50. Input molecule: CC1(N)COc2c1cc(C(O)(CNC(=O)c1ccc(OCCO)c(F)c1)C(F)(F)F)nc2-c1ccc(F)cc1 (stereo not shown) [Compound 476]
[out] > 6.00

[in] Given Cc1ncc(C(=O)NCC(O)(c2cc(C(C)(C)N)cc(-c3ccc(F)cc3)n2)C(F)(F)F)o1 (stereo not shown) [Compound 608] , respond with its pEC50.
[out] 4.30 to 6.00

[in] For COc1cc(C(=O)NC[C@@](O)(c2cc(C(C)(C)N)cc(-c3ccc(F)cc3)n2)C(F)(F)F)ccc1OC1CC1 [Compound 495] , write its pEC50.
[out] > 6.00

----------
Assign CC50 at 5 days to each entry below.
experiment: Cytotoxicity Determination (CCK-8, without addition of virus); format: cell-based; conditions: human, 50% cytotoxicity concentration (CC50)

[in] Give CC50 at 5 days for the following compound: COc1cc(C(=O)NCC(O)(c2cc3c(c(-c4ccc(F)c(Cl)c4)n2)OCC3(C)C)C(F)(F)F)ccc1OC1CC1 (centres unmarked)
[out] > 100 µM

[in] Using the record for CC(C)(N)c1cc(-c2ccc(F)cc2)nc(C(O)(CNC(=O)c2ccc3c(c2)CNC(=O)N3)C(F)(F)F)c1 (centres unmarked) , state its measured CC50 at 5 days.
[out] 10 to 100 µM

[in] Provide one value: measured CC50 at 5 days of COc1cc(C(=O)NCC(O)(c2ccc(OC)c(-c3ccc(F)c(Cl)c3)n2)C(F)(F)F)ccc1OCC(F)F (centres unmarked)
[out] > 100 µM

[in] Look up and state reported CC50 at 5 days for COc1cc(C(=O)NCC(C)(O)c2ccc(OC)c(-c3ccc(F)c(Cl)c3)n2)ccc1OC1CC1 (centres unmarked)
[out] 10 to 100 µM

[in] Give me measured CC50 at 5 days, please, for this compound: COc1cc(C(=O)NCC(O)(c2ccc(OC)c(-c3ccc(F)c(Cl)c3)n2)C(F)(F)F)ccc1OC1CC1 (centres unmarked) [Compound 370]
[out] > 100 µM

[in] Quote CC50 at 5 days reported for CCNC(C)(C)c1cc(-c2ccc(F)c(Cl)c2)nc(C(O)(CNC(=O)c2ccc(OC[C@H](C)O)c(OC)c2)C(F)(F)F)c1 (some centres unmarked) please.
[out] 10 to 100 µM

[in] Report CC50 at 5 days for COc1cc(C(=O)NCC(O)(c2cc3c(c(-c4ccc(F)c(Cl)c4)n2)OCCC3(C)C)C2CC2)ccc1OCCO (centres unmarked)
[out] 10 to 100 µM

[in] Name the recorded CC50 at 5 days of the item COc1cc(C(=O)NCC(=O)c2cc3c(c(-c4ccc(F)c(C(C)F)c4)n2)OCCC3(C)C)ccc1OCCO (centres unmarked) in your answer.
[out] 10 to 100 µM

[in] Supply recorded CC50 at 5 days for COc1cc(C(=O)NCC(O)(Cn2nccn2)c2ccc(OC)c(-c3ccc(F)c(Cl)c3)n2)ccc1OCCO (centres unmarked) here.
[out] 10 to 100 µM

[in] Note down CC50 at 5 days recorded for COc1cc(C(=O)NCC(O)(c2cc(C(C)(C)NCCO)cc(-c3ccc(F)c(Cl)c3)n2)C(F)(F)F)ccc1OC1CC1 (centres unmarked)
[out] 10 to 100 µM

[in] In one line, give reported CC50 at 5 days of the entry COc1cc(C(=O)NCC(O)(c2ccc(CN)c(-c3ccc(F)cc3)n2)C(F)(F)F)ccc1OC1CC1 (centres unmarked) .
[out] 10 to 100 µM

[in] Recall and state the measured CC50 at 5 days for COc1cc(C(=O)NCC(=O)c2cc3c(c(-c4ccc(F)c(Cl)c4)n2)OCC3(C)C)ccc1OCCO .
[out] 10 to 100 µM

[in] For the compound COc1cc(C(=O)NCC(O)(c2cc(C(C)(C)N)cc(-c3ccc(F)c(Cl)c3)n2)C(F)(F)F)ccc1OCS(N)(=O)=O (centres unmarked) , report CC50 at 5 days.
[out] 10 to 100 µM

[in] Provide only the value of recorded CC50 at 5 days for COc1cc(C(=O)NCC(=O)c2cc3c(c(-c4ccc(F)c(Cl)c4)n2)OCCC3)ccc1OCCO
[out] > 100 µM

----------
Target: recombinant RSV complex (Human respiratory syncytial virus A, UniProt P28887)
Sequence (P28887 whole entry): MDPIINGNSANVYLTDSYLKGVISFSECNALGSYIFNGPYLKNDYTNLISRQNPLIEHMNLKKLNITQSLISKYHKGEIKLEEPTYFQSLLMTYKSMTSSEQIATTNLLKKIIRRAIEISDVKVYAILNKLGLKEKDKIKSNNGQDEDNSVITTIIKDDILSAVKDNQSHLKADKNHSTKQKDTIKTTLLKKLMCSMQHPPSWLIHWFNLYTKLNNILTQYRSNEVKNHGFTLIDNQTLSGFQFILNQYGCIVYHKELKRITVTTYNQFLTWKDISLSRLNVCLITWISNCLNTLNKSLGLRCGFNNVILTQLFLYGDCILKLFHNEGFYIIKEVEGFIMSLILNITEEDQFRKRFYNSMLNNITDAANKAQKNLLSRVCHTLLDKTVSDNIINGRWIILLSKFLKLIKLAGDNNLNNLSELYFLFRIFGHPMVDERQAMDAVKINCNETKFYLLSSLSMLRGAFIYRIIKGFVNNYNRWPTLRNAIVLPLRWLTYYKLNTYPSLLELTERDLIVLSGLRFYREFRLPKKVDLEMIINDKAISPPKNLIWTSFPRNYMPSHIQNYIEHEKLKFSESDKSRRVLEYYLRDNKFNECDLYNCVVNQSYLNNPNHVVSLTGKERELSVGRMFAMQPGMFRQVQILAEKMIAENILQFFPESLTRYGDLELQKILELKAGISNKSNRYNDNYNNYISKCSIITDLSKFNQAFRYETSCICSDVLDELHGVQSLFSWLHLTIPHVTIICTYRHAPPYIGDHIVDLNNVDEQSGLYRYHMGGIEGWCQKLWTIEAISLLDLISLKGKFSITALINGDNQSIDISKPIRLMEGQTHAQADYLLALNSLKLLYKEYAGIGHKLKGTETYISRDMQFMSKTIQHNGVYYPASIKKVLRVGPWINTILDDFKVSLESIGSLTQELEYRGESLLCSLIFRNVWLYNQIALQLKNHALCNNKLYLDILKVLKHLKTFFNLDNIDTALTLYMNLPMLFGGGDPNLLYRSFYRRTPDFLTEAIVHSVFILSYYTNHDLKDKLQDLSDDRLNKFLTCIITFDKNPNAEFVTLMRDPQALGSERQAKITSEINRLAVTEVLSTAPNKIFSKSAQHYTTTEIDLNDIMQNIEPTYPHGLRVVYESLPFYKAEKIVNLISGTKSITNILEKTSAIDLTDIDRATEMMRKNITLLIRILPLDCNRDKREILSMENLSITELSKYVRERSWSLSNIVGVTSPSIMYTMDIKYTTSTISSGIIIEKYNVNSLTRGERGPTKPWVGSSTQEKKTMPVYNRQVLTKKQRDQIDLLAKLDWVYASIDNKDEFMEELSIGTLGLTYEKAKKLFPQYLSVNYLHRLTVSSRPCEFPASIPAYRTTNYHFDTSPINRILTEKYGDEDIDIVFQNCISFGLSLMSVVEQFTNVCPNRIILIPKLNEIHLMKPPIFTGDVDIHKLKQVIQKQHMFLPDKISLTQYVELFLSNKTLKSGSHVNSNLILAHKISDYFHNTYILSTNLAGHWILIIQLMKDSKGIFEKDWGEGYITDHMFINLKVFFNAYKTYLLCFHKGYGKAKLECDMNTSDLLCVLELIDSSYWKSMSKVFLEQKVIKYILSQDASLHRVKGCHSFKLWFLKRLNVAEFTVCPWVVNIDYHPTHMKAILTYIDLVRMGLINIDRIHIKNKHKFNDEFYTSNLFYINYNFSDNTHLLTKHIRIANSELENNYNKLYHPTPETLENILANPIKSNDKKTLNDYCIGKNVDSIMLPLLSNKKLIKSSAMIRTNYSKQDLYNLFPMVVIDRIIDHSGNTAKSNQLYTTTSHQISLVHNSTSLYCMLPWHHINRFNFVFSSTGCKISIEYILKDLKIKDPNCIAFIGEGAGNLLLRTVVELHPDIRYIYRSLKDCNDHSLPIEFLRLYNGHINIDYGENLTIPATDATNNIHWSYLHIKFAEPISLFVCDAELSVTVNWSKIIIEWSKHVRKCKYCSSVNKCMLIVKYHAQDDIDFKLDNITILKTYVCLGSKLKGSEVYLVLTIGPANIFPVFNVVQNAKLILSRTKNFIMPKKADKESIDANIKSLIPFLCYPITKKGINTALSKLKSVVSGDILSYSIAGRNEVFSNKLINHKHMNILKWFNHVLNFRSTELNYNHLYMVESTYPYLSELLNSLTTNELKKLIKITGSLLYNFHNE
Sequence (P03421 whole entry, further chain): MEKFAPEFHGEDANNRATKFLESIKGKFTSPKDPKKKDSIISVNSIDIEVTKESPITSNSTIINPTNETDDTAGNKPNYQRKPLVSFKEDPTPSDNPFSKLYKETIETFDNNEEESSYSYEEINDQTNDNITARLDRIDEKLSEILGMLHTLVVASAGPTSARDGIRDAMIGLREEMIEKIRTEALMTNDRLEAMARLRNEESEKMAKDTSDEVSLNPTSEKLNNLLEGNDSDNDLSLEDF
Experiment: RSV Polymerase Inhibition Assay
Format: biochemical
Experimental: Standard RSV polymerase assays were conducted in the presence of 10 nM recombinant RSV complex in a reaction buffer containing Tris-HCl pH7.5, 6 mM MgCl2, and other additives and substrates including RNA oligonucleotides and radionucleotides. Standard reactions were incubated in 96-well plate format for 2 h at 30° C., in the presence of increasing concentration of inhibitor. The reaction was stopped with 90 μL of 0.1M EDTA, and the reaction product was transferred to a “reading” 96-well plate. […]
readout name: IC50

[in] Quote IC50 with test system recombinant RSV complex (Human respiratory syncytial virus A, UniProt P28887) for COc1cc(C(=O)NCC(O)(c2cc(C(C)(C)N)cc(-c3ccc(F)cc3)n2)C(F)(F)F)ccc1-c1ccncc1 (stereo not shown)
[out] < 1000 nM

[in] System recombinant RSV complex (Human respiratory syncytial virus A, UniProt P28887). Read-out IC50. Item COc1cc(C(=O)NCC(=O)c2cc3c(c(-c4ccc(F)c(Cl)c4)n2)OCC3(C)C)cc2cccnc12 . Report value.
[out] < 1000 nM

[in] Please respond with reported IC50 (system recombinant RSV complex (Human respiratory syncytial virus A, UniProt P28887)) for COc1cc(C(=O)NCC(O)(c2cc3c(c(-c4ccc(F)c(Cl)c4)n2)OCC3(C)C)C(F)(F)F)ccc1OC1CCNC1=O (stereo not shown) [Compound 203] .
[out] < 10000 nM

[in] Quote recombinant RSV complex (Human respiratory syncytial virus A, UniProt P28887) IC50 for entry CCC(O)(CNC(=O)c1ccc(OCCF)c(OC)c1)c1ccc(OC)c(-c2ccc(F)c(Cl)c2)n1 (single isomer, unassigned) [Compound 122b] .
[out] < 10000 nM

[in] Under recombinant RSV complex (Human respiratory syncytial virus A, UniProt P28887), report IC50 for COc1cc(C(=O)NCC(O)(c2cc(C(C)(C)N)cc(-c3ccc(F)c(Cl)c3)n2)C(F)(F)F)ccc1OC1CC1(F)F (stereo not shown)
[out] < 1000 nM

[in] # return IC50 for COc1cc(C(=O)NC[C@@](O)(c2cc(C(C)(C)N)cc(-c3ccc(F)c(Cl)c3)n2)C(F)(F)F)ccc1OCC(N)=O , test system: recombinant RSV complex (Human respiratory syncytial virus A, UniProt P28887)
[out] < 1000 nM

[in] For recombinant RSV complex (Human respiratory syncytial virus A, UniProt P28887), give the measured IC50 of the entry COc1cc(C(=O)NCC(O)(c2cc(C(C)(C)N)cc(-c3ccc(F)c(Cl)c3)n2)C(F)(F)F)ccc1OCC(=O)NS(C)(=O)=O (stereo not shown)
[out] < 1000 nM

[in] // output IC50; input COc1cc(C(=O)NCC(=O)c2cc3c(c(-c4ccc(F)c(Cl)c4)n2)OCC3(C)C)ccc1OC1CCN(C)C1=O (stereo not shown) ; system recombinant RSV complex (Human respiratory syncytial virus A, UniProt P28887)
[out] < 1000 nM

[in] Give IC50; test system recombinant RSV complex (Human respiratory syncytial virus A, UniProt P28887); molecule COc1cc(C(=O)NCC(=O)c2cc3c(c(-c4ccc(F)c(Cl)c4)n2)OCCC3)ccc1OCCO
[out] < 1000 nM

[in] GET IC50 where system = recombinant RSV complex (Human respiratory syncytial virus A, UniProt P28887) and item = COc1cc(C(=O)NCC(O)(c2cc3c(c(-c4ccc(F)c(Cl)c4)n2)OCC3(C)N)C(F)(F)F)ccc1OCCO (stereo not shown)
[out] < 1000 nM

[in] Give recombinant RSV complex (Human respiratory syncytial virus A, UniProt P28887) IC50 for the following molecule: COc1cc(C(=O)NCC(O)(c2cc3c(c(-c4ccc(F)cc4)n2)OCC3(C)N)C(F)(F)F)cc2cccnc12 (stereo not shown)
[out] < 1000 nM

[in] Look up recombinant RSV complex (Human respiratory syncytial virus A, UniProt P28887) data: IC50 of COc1cc(C(=O)NCC(O)(c2cc(C(C)(C)N)cc(-c3ccc(Cl)cc3)n2)C(F)(F)F)ccc1OC1CC1 (stereo not shown) , then report it.
[out] < 1000 nM

[in] Give IC50 for this entry on recombinant RSV complex (Human respiratory syncytial virus A, UniProt P28887): COc1cc(C(=O)NCC(O)(c2cc(C(C)(C)N)cc(-c3ccc(F)cc3)n2)C(F)(F)F)ccc1OC[C@@H](C)O (stereo partly shown)
[out] < 1000 nM

The origin of these recorded values is patent US11021444B2.
